ASSAY EXPLANATION: TED14856 Part A: plasma pharmacokinetics of compound (1)
Format: in vivo, human
CONDITION DETAILS: human, plasma, oral, 150 mg, single 150 mg, Cycle1 Day 1, fasted, N=3; read-out: AUC0-24 (Mean ± SD)
ASSAY ENDPOINT: AUC(0-t) (ng·h/mL)
Numbers only, in ng·h/mL.

Briefly, AUC(0-t) measured for O=C(O)c1ccc2c(c1)CCCC(c1ccc(Cl)cc1Cl)=C2c1ccc(O[C@H]2CCN(CCCF)C2)cc1 : 9140

----------
ASSAY EXPLANATION: TED14856 Part A: plasma pharmacokinetics of compound (1)
Format: in vivo, human
CONDITION DETAILS: female, human, plasma, oral; estimated over 48 hours after a single dose on Day 1; read-out: mean apparent terminal half-life
ASSAY ENDPOINT: half-life

Entry O=C(O)c1ccc2c(c1)CCCC(c1ccc(Cl)cc1Cl)=C2c1ccc(O[C@H]2CCN(CCCF)C2)cc1 [compound (1)] , half-life reported as ≥ 480 min

----------
ASSAY EXPLANATION: TED14856 Part A: plasma pharmacokinetics of compound (1)
Type: in vivo, human
CONDITION DETAILS: human, plasma, oral, 200 mg, single 200 mg, Cycle1 Day 1, fasted, N=4; read-out: AUC0-24 (Geometric Mean)
ASSAY ENDPOINT: AUC(0-t) (ng·h/mL)
One number for each entry, in ng·h/mL.

// recorded AUC(0-t) for O=C(O)c1ccc2c(c1)CCCC(c1ccc(Cl)cc1Cl)=C2c1ccc(O[C@H]2CCN(CCCF)C2)cc1 : 9760

----------
ASSAY EXPLANATION: TED14856 Part A: plasma pharmacokinetics of compound (1)
Type: in vivo, human
CONDITION DETAILS: human, plasma, oral, 150 mg, repeated 150 mg once daily, Cycle1 Day 22, fasted, N=2; read-out: AUC0-24 (Geometric Mean)
ASSAY ENDPOINT: AUC(0-t)
// return the numeric value with its unit appended

AUC(0-t) in this record for O=C(O)c1ccc2c(c1)CCCC(c1ccc(Cl)cc1Cl)=C2c1ccc(O[C@H]2CCN(CCCF)C2)cc1 : 15000 ng·h/mL

----------
ASSAY EXPLANATION: TED14856 Part A: plasma pharmacokinetics of compound (1)
Format: in vivo, human
CONDITION DETAILS: female, human, plasma, oral; across the 20-600 mg range; read-out: mean apparent systemic clearance
ASSAY ENDPOINT: clearance

Record O=C(O)c1ccc2c(c1)CCCC(c1ccc(Cl)cc1Cl)=C2c1ccc(O[C@H]2CCN(CCCF)C2)cc1 , field clearance: 233 to 250 mL/min

----------
ASSAY EXPLANATION: TED14856 Part A: plasma pharmacokinetics of compound (1)
Type: in vivo, human
CONDITION DETAILS: human, plasma, oral, 20 mg, repeated 20 mg once daily, Cycle1 Day 22, fasted, N=3; read-out: AUC0-24 (Mean ± SD)
ASSAY ENDPOINT: AUC(0-t) (ng·h/mL)
Answers are plain numbers, in ng·h/mL.

Per the record, O=C(O)c1ccc2c(c1)CCCC(c1ccc(Cl)cc1Cl)=C2c1ccc(O[C@H]2CCN(CCCF)C2)cc1 has AUC(0-t) of 1630

----------
ASSAY EXPLANATION: TED14856 Part A: plasma pharmacokinetics of compound (1)
Format: in vivo, human
CONDITION DETAILS: human, plasma, oral, 150 mg, single 150 mg, Cycle1 Day 1, fasted, N=3; read-out: AUC0-24 (Geometric Mean)
ASSAY ENDPOINT: AUC(0-t) (ng·h/mL)
Numbers only, in ng·h/mL.

Measured AUC(0-t) of O=C(O)c1ccc2c(c1)CCCC(c1ccc(Cl)cc1Cl)=C2c1ccc(O[C@H]2CCN(CCCF)C2)cc1 : 6860
